- system name: OGA (Homo sapiens)
- Construct: HEK293 cells inducible for P301L mutant human Tau (isoform 2N4R) were established at Janssen; endogenous in cells
- experiment: OGA cellular assay: immunocytochemical detection of O-GlcNAcylated proteins in HEK293 cells inducible for P301L mutant human Tau
log10(EC50) values for the compounds below.
All values: base-10 log of EC50 in nM.

Some compounds with known log10(EC50) results, for comparison:
CC(=O)Nc1ncc(CN2CCC(Cc3cnc4ccn(C)c4c3)C2)s1 (stereo not drawn) :: 1.37
CC(=O)Nc1ncc(CN2CCCC(c3ccc4c(ccn4C)n3)C2)s1 (stereo not drawn) :: 2.29
CC(=O)Nc1ncc(CN2CCC(Cc3cccc4nccn34)C2)s1 (stereo not drawn) :: 1.53

Q: Item CC(=O)Nc1ncc(CN2CCCC(c3ccnc4cc[nH]c34)C2)s1 (racemic) has what recorded log10(EC50)?
Result: 1.09

Q: So what does the record say about log10(EC50) for Cc1cc(C2CCCN(C(C)c3ccc4c(c3)OCO4)C2)n2ccnc2n1 (stereo not drawn) ?
Result: 3.42

Q: Record request: log10(EC50) value, item CC(=O)Nc1ncc(CN2CCCC(c3cccc4nccn34)C2)s1 (racemic)
Result: 1.32

###

Below: a set of entries, each annotated with reported EC50.
- system name: OGA (Homo sapiens, UniProt O60502)
- Construct: HEK293 cells inducible for P301L mutant human Tau (isoform 2N4R) were established at Janssen; endogenous in cells
- experiment: OGA cellular assay: immunocytochemical detection of O-GlcNAcylated proteins in HEK293 cells inducible for P301L mutant human Tau
Your reply should be a number followed by the unit it is expressed in.

CC(=O)Nc1ncc(CN2CCC(Cc3cnc4cc[nH]c4c3)C2)s1 (centres unmarked) :: 41.7 nM
CC(=O)Nc1ncc(CN2CCC[C@H](c3ccnc4ccn(C)c34)C2)s1 (single isomer, unassigned) :: 87.1 nM
CC(=O)Nc1ncc(CN2CCCC(c3ccc4ccn(C)c4n3)C2)s1 (centres unmarked) :: 195 nM
CC(=O)Nc1ncc(CN2CCCC(c3cnc4cc[nH]c4c3)C2)s1 (racemic) [Product 26] :: 24 nM

Q: Using the record for CC(=O)Nc1ncc(CN2CCCC(Cc3c(F)c(C)nc4ncnn34)C2)s1 (centres unmarked) , report its EC50.
Result: 15.5 nM

###

- system name: recombinant human Meningioma Expressed Antigen 5 (MGEA5), also referred to as O-GlcNAcase (OGA) (Homo sapiens)
- Construct: Full length OGA enzyme was purchased at OriGene (cat # TP322411); purchased OriGene TP322411
- experiment: OGA biochemical assay: inhibition of FM-GlcNAc hydrolysis, fluorescence; protocol A (10 nM OGA, 1 h) or protocol B (2 nM OGA, 6 h)
- test context: Enzymatic protocol A (10 nM OGA, 1 h); read-out: Enzymatic hOGA; pIC50 (converted)
# maps each entry to its IC50
Quick note: give the figure in nM, leave out the unit.

Some molecules with recorded IC50:
CC(=O)Nc1ncc(S(=O)(=O)N2CCCC(c3cc(C(F)F)n4ccnc4n3)C2)s1 (racemic) [Product 23] :: 295
CC(=O)Nc1ncc(S(=O)(=O)N2CCNC(c3cc(C(F)F)n4ncnc4n3)C2)s1 (centres unmarked) [Product 43] :: 1860

Q: Need IC50, item CC(=O)Nc1ncc(S(=O)(=O)N2CCOC(c3cc(C(F)F)n4ncnc4n3)C2)s1 (centres unmarked) [Product 38]
Result: 468

Q: Look up IC50 for this molecule: CC(=O)Nc1ncc(CN2CCC[C@H](c3ccnc4ncnn34)C2)s1 [Product 9]
Result: 11.7

Q: Which value of IC50 has been reported for CC(=O)Nc1ncc(CN2CCCC(c3cc(C(F)F)n4ccnc4n3)C2)s1 (racemic) [Product 24] in the records?
Result: 31.6

Q: Dear colleague, I am looking for the recorded IC50 of the following molecule: CC(=O)Nc1ncc(S(=O)(=O)N2CCCC(c3cc(C)nc4ncnn34)C2)s1 (racemic) [Product 3]
Result: 32.4

Q: Sample CC(=O)Nc1ncc(S(=O)(=O)N2CC[C@H](C)[C@@H](c3cc(C(F)F)nc4ncnn34)C2)s1 [Product 7] — what was its IC50?
Result: 2750

Q: Given the entry CC(=O)Nc1ncc(S(=O)(=O)N2CCC[C@H](c3ccnc4ncnn34)C2)s1 [Product 4] , report its measured IC50.
Result: 30.9

###

Recorded Enzymatic Emax (%) values for a group of molecules are listed next.
- system name: recombinant human Meningioma Expressed Antigen 5 (MGEA5), also referred to as O-GlcNAcase (OGA) (Homo sapiens, UniProt O60502)
- Construct: Full length OGA enzyme was purchased at OriGene (cat # TP322411); purchased OriGene TP322411
- experiment: OGA biochemical assay: inhibition of FM-GlcNAc hydrolysis, fluorescence; protocol A (10 nM OGA, 1 h) or protocol B (2 nM OGA, 6 h)
- test context: Enzymatic protocol B (2 nM OGA, 6 h)
Could you give the number and then its unit, please?

Solved entries (count: 4):
CC(=O)Nc1ncc(CN2CCC[C@@H](c3cnc4ccn(C)c4c3)C2)s1 (single isomer, unassigned) :: 102.15%
CC(=O)Nc1ncc(CN2CCCC(c3cc(C)nc4ccn(C)c34)C2)s1 (stereo not drawn) :: 102.93%
CC(=O)Nc1ncc(CN2CCC[C@H](c3cnc4cc[nH]c4c3)C2)s1 (single isomer, unassigned) :: 99.58%
CC(=O)Nc1ncc(CN2CCC[C@H](c3cc4cc[nH]c4nc3C)C2)s1 (single isomer, unassigned) :: 100.81%

Q: Sample CC(=O)Nc1ncc(CN2CCCC(c3nc(C)cc4cc[nH]c34)C2)s1 (stereo not drawn) — what was its Enzymatic Emax (%)?
Result: 101.08%

Q: Entry CC(=O)Nc1ncc(CN2CCCC(c3cc(C)nc4cc[nH]c34)C2)s1 (stereo not drawn) : reported Enzymatic Emax (%) = ?
Result: 99.16%

###

- system name: OGA (Homo sapiens, UniProt O60502)
- Construct: HEK293 cells inducible for P301L mutant human Tau (isoform 2N4R) were established at Janssen; endogenous in cells; host or cells: HEK293 cells inducible for P301L mutant human Tau (2N4R)
- Sequence (O60502 1-916): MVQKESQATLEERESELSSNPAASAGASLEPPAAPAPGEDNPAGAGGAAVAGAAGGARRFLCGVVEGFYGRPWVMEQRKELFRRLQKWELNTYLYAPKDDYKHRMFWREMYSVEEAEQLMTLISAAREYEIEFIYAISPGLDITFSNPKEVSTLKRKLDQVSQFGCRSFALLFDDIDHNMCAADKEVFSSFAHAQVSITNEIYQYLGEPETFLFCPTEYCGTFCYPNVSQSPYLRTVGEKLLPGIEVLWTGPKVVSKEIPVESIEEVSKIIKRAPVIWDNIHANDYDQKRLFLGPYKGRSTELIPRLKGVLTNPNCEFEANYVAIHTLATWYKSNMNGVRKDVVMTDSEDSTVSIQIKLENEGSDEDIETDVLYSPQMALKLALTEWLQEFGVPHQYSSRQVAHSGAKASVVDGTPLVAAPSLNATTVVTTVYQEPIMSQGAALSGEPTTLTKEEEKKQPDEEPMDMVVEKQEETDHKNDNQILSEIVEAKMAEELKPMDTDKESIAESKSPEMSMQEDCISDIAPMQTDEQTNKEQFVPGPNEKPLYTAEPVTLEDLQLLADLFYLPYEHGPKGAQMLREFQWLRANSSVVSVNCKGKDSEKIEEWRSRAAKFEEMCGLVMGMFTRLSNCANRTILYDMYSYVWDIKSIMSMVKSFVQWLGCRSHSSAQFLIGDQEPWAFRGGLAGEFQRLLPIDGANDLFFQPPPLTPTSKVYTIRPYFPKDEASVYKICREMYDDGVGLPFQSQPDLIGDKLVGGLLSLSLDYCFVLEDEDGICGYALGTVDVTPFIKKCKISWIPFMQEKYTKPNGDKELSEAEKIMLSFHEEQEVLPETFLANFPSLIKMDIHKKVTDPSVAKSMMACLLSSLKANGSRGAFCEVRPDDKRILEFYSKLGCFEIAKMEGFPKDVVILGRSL
- experiment: OGA cellular assay: immunocytochemical detection of O-GlcNAcylated proteins in HEK293 cells inducible for P301L mutant human Tau
- Assay type: cell-based
- test context: HEK293, read-out: Cellular Emax (%)
readout label: Emax (%)
Your answer should be a plain number; it is taken to be in %.

Q: I'd like to know its Emax. The compound in question is CC(=O)Nc1ncc(CN2CCC3(CC3)C(c3cc(C(F)F)nc4ncnn34)C2)s1 (stereo not drawn)
Result: 84.5

Q: Please look up its Emax: CC(=O)Nc1ncc(S(=O)(=O)N2CCOC(c3cc(C)nc4ncnn34)C2)s1 (racemic)
Result: 22

Q: Entry under review: CC(=O)Nc1ncc(CN2CCC[C@@H](c3cc(C(F)F)n4ncnc4n3)C2)s1 . Reported Emax?
Result: 113

Q: Quick check: Emax of CC(=O)Nc1ncc(CN2CCCC(c3cc(C(F)F)nc4ncnn34)C2)s1 (racemic) ?
Result: 130

Q: For CC(=O)Nc1ncc(CN2CCCC(c3cc4ccn(C)c4nc3C)C2)s1 (stereo not drawn) , what is its reported Emax?
Result: 114

Q: Fill in the blank: the reported Emax of CC(=O)Nc1ncc(CN2CCCC(c3cc(C(F)F)nc4nccn34)C2)s1 (stereo not drawn) is ____.
Result: 108

Q: Any idea what its Emax is? The compound is CC(=O)Nc1ncc(CN2CCC(Cc3cccc4nccn34)C2)s1 (stereo not drawn)
Result: 103
